metric: melting point

Please review the entries below; each comes with its answer.
- compound: "COc1cc(OC)c(/C=C/[S+]([O-])Cc2ccc(OC)c([N+](=O)[O-])c2)c(OC)c1 (stereo not shown)"
  melting point: "140 to 146 °C"
- compound: "COc1cc(OC)c(/C=C/[S+]([O-])Cc2ccc(OC)c(O)c2)c(OC)c1 (stereo not shown)"
  melting point: "112 to 115 °C"
- compound: "COc1ccc(C[S+]([O-])/C=C/c2c(OC)cc(OC)cc2OC)cc1 (stereo not shown)"
  melting point: "92 to 94 °C"

Turning now to a further record.
Could you tell me which melting point is on file for O=C(O)c1ccc(/C=C/[S+]([O-])Cc2ccc(Cl)cc2)cc1 (stereo not shown) ? 270 to 274 °C
